Test: Half life in rat liver microsomes
Assay type: ADME, microsome
measurement_type: half-life (min)
Answers are plain numbers, in min.

[[record]]
smiles_data = "C=CC(=O)Nc1cc(Nc2nccc(-c3cn4c5c(cccc35)CCC4)n2)c(OC)cc1N(C)CCN(C)C"
measurement_type = "half-life"
test_result = 46.2


# next compound below
Incoming: Bench note: what half-life did C=CC(=O)Nc1cc(Nc2nccc(-c3cn(C)c4ccccc34)n2)c(OC)cc1N(C)CCN(C)C show?
Outgoing: 62.4

###

Kindly supply the reported clearance values for the records listed here.
Experiment: Clearance in Sprague-Dawley rat at 1 mg/kg, iv after 24 hrs by LC-MS/MS analysis
Type: ADME, organism-based
Conditions: in vivo
One number for each entry, in mL/min/kg.

[[record]]
smiles_data = "C=CC(=O)Nc1cc(Nc2nccc(-c3cn4c5c(cccc35)CCC4)n2)c(OC)cc1N(C)CCN(C)C"
measurement_type = "clearance"
unit_of_measure = "mL/min/kg"
test_result = 86.2


Incoming: Bench note: what clearance did C=CC(=O)Nc1cc(Nc2nccc(-c3cn(C)c4ccccc34)n2)c(OC)cc1N(C)CCN(C)C show?
Outgoing: 110
